Reference source for all entries: the RNAGym collection of RNA variant scans (doi:10.1093/nar/gkz1192)

For each of the variants below, state its self-cleavage.
B1: CPEB3 Ribozyme (parent)
chain: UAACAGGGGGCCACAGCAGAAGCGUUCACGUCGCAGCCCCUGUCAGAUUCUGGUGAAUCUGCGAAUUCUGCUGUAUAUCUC

variants of: B1; experiment: self-cleavage, relative activity (ratio to wild type); higher = more cleavage; in vitro, sequencing
One number for each entry.

In [3]: df
Out[3]:
                            record_sequence  meas_value
0  UACCAGGGGGCCACAGCAGAAGCGUUCACGUCGCAGCCCCUGUCAGAUCCUGGUGAAUCUGCGAAUUCUGCUGUAUAUCUC [A3C U49C]        0.86
1  UAACAGGUGGCCACAGCAGAAGCGUUCACGUCGCAGCCCCUGUCAGAUUCUGGUUAAUCUGCGAAUUCUGCUGUAUAUCUC [G8U G55U]         0.2
2  UAACAGGGGGCCACAGCUGAAGCGUUCACGUCGCAGCCCCUGUCAGAUUCUGGUGAAUCUGCGAAUCCUGCUGUAUAUCUC [A18U U67C]        0.26
3  UAACAGGGAGCCACAGCAGAAGCGUUCACGUCGCAGCCCCUGUCAGAUUCUGGUGAAUCUGCGAAUUCUGCUGUGUAUCUC [G9A A75G]        0.31
4  UAACAGGGGGCGACAGCAGAAGCGUUCACGUCGCAGCCCCUGUCAGAUUCUGGUGAAUCUGCGAGUUCUGCUGUAUAUCUC [C12G A65G]        0.18

Count: 3. Required value per item: self-cleavage.
1. UAACAGGGGGCCACAGCAGAAGCGUUCACGUCGCAGCCCCUGUCAGAUUCUGGUGAAUCCGCGAAAUCUGCUGUAUAUCUC [U60C U66A]
2. UAACAGGGGGCCACAGCAGAAGCGUUCAUGUCGCAGCCCCUGUCAGAUUCUGGUGGAUCUGCGAAUUCUGCUGUAUAUCUC [C29U A56G]
3. UAACAGGGGGCCACAGCAGAAGCGUUCACGUCGCGGCCCCUGUCAGAUUCUGGUGAAUCUGCGAAUUCUGCUGUAUAACUC [A35G U78A]

Output:
[0.33, 0.38, 1.35]

Count: 4. Required value per item: self-cleavage.
1. UAACAGGGGGCCACAGCAGGAGCGUUCACGUCCCAGCCCCUGUCAGAUUCUGGUGAAUCUGCGAAUUCUGCUGUAUAUCUC [A20G G33C]
2. UAACAGGGGGCCACGGCAGAAGCGUUCACGUCGCAGCCCCUGUCAGAUUCAGGUGAAUCUGCGAAUUCUGCUGUAUAUCUC [A15G U51A]
3. UAACAGGGGGCCACAGCAGAAGCGUUCACGUCGCUGCCCCUGUCAGAUUCUGGUGAAUCUGCGAAUUCUGCUGAAUAUCUC [A35U U74A]
4. UAACAGGGGGCCACAGUAGAAGCGUUCACGUCGCAGCCCCUGUCAGAUUCUGGUAAAUCUGCGAAUUCUGCUGUAUAUCUC [C17U G55A]

Output:
[0.14, 0.9, 0.89, 0.38]

Count: 3. Required value per item: self-cleavage.
1. UAACAGGGGGCCACAGCAGAAGCGUCCACGCCGCAGCCCCUGUCAGAUUCUGGUGAAUCUGCGAAUUCUGCUGUAUAUCUC [U26C U31C]
2. UAACAGUGGGCCACAGCGGAAGCGUUCACGUCGCAGCCCCUGUCAGAUUCUGGUGAAUCUGCGAAUUCUGCUGUAUAUCUC [G7U A18G]
3. UAACAGGGGGCCACAGCAGAGGCGUUCACGUCGCAGCCCCUGUCAGAUUCUGGUGAAUCUGCGAAUACUGCUGUAUAUCUC [A21G U67A]

Output:
1: 0.35; 2: 0.19; 3: 0.24
